Assign IC50 to each entry below.
# Test system: HepG2
# METHOD: Cytotoxicity against human HepG2 cells assessed as reduction in cell viability after 48 hrs by MTT assay
# Assay type: functional, cell-based
# SETTINGS: HepG2, 48 h, read-out: IC50
Please state the figure in µM; there is no need to write the unit.

Inquiry: For the molecule shown here, COc1c(O)cc(O)c2c(=O)cc(-c3cccc(F)c3)oc12 , give the reported IC50.
Reply text: 59.4

Inquiry: For the molecule shown here, O=c1[nH]cc(F)c(=O)[nH]1 , give the reported IC50.
Reply text: 17.2

Inquiry: For the molecule shown here, COc1c(OCCCCN2CCOCC2)cc(O)c2c(=O)cc(-c3ccccc3)oc12 , give the reported IC50.
Reply text: 3.3

Inquiry: For the molecule shown here, CNCCCCOc1c(O)cc(O)c2c(=O)cc(-c3ccccc3)oc12 , give the reported IC50.
Reply text: 97

Inquiry: For the molecule shown here, COc1c(O)cc(O)c2c(=O)cc(-c3ccc(F)cc3Br)oc12 , give the reported IC50.
Reply text: 33.5

Data origin: ChEMBL document CHEMBL4002633
